Tested on: B cell
method: Induction of anti-IgM-stimulated human CD20+ B cell activation at 10 to 1000 uM assessed as increase in CD69 expression measured as mean fluorescence intensity AUC by flow cytometry analysis
Type: functional, cell-based
applied-conditions: dose 10-1000 µM
parameter-measured: AUC

In the examples that follow, each entry is paired with its recorded AUC.
compound-structure: Cc1cc2c(c(C3CC3)n1)CN(c1cccc([C@H](C)Cc3nncn3C)c1)C2=O
AUC: < 0.5

compound-structure: Cn1cnnc1CC1(c2cccc(NC(=O)c3cc(CN4CCC5(CC5)C4)cc(C4CC4)n3)c2)COC1
AUC: > 1.51

compound-structure: C[C@H](Sc1nncn1C)c1cccc(NC(=O)c2cc(C(=O)N3CC[C@H](O)C3)ccn2)c1
AUC: < 0.5

Kindly review the next compound as well.
Item Cn1cnnc1C(F)(F)[C@](C)(F)c1cccc(N2Cc3c(cc(C(=O)N4CC[C@H](O)C4)cc3C(F)(F)F)C2=O)c1 with B cell - AUC? < 0.5

Where do these numbers come from? They come from ChEMBL document CHEMBL5050844.
